These entries and their values trace back to ChEMBL document CHEMBL3351723.

- procedure_summary: Induction of apoptosis in human Hs578Bst cells assessed as distribution of mitochondrial polarization and morphology at 0.25 ug/ml after 6 hrs by confocal microscopy
- Type: functional, cell-based
The source made the active and inactive calls. The calls are words filed in the database; no cut-off is given here.
Hello, when you answer, please use one of the following outcomes: active, inactive

Take a look at these entries with their results.
compound: C=C(C)[C@@H]1CC[C@]2(COC(=O)CC[n+]3ccc(N(C)C)cc3)CC[C@]3(C)[C@H](CC[C@@H]4[C@@]5(C)CC[C@H](OC(=O)CC[n+]6ccc(N(C)C)cc6)C(C)(C)[C@@H]5CC[C@]43C)[C@@H]12.[Cl-].[Cl-]
label: inactive
//
compound: C=C(C)[C@@H]1CC[C@]2(COC(=O)C(CC)[n+]3ccc(N(C)C)cc3)CC[C@]3(C)[C@H](CC[C@@H]4[C@@]5(C)CC[C@H](OC(=O)C(CC)[n+]6ccc(N(C)C)cc6)C(C)(C)[C@@H]5CC[C@]43C)[C@@H]12 (some centres undefined)
label: active
//
compound: C=C(C)[C@@H]1CC[C@]2(COC(=O)C[N+](C)(C)C(C)C)CC[C@]3(C)[C@H](CC[C@@H]4[C@@]5(C)CC[C@H](OC(=O)C[N+](C)(C)C(C)C)C(C)(C)[C@@H]5CC[C@]43C)[C@@H]12.[Cl-].[Cl-]
label: active

Field: next compound
Kindly provide the recorded test outcome for the following compound: C=C(C)[C@@H]1CC[C@]2(COC(=O)C[n+]3ccc(N(C)C)cc3)CC[C@]3(C)[C@H](CC[C@@H]4[C@@]5(C)CC[C@H](OC(=O)C[n+]6ccc(N(C)C)cc6)C(C)(C)[C@@H]5CC[C@]43C)[C@@H]12.[Cl-].[Cl-]
active

====

- Test system: Liver microsome
- procedure_summary: Induction of mitochondrial function disruption in Wistar Han rat liver mitochondria energized with succinate assessed as State-4 level per mg of protein measured at 0.667 ug/mg of protein (reference value: 33.5 +/- 7.5 nmol/mg protein/min)
- Assay type: functional
test_readout: Activity (nmol/min)
Hi! Could you send only the number? It should be in nmol/min, unit omitted.

Some compounds with known Activity results, for comparison:
compound: C=C(C)[C@@H]1CC[C@]2(COC(=O)C[N+](C)(C)C(C)C)CC[C@]3(C)[C@H](CC[C@@H]4[C@@]5(C)CC[C@H](OC(=O)C[N+](C)(C)C(C)C)C(C)(C)[C@@H]5CC[C@]43C)[C@@H]12.[Cl-].[Cl-]
readout_value: 28.8
--
compound: C=C(C)[C@@H]1CC[C@]2(COC(=O)C(CC)[n+]3ccc(N(C)C)cc3)CC[C@]3(C)[C@H](CC[C@@H]4[C@@]5(C)CC[C@H](OC(=O)C(CC)[n+]6ccc(N(C)C)cc6)C(C)(C)[C@@H]5CC[C@]43C)[C@@H]12 (some centres undefined)
readout_value: 23.2
--
compound: C=C(C)[C@@H]1CC[C@]2(COC(=O)C[n+]3ccc(N(C)C)cc3)CC[C@]3(C)[C@H](CC[C@@H]4[C@@]5(C)CC[C@H](OC(=O)C[n+]6ccc(N(C)C)cc6)C(C)(C)[C@@H]5CC[C@]43C)[C@@H]12.[Cl-].[Cl-]
readout_value: 34.5

Now for a further compound.
The compound C=C(C)[C@@H]1CC[C@]2(COC(=O)CC[n+]3ccc(N(C)C)cc3)CC[C@]3(C)[C@H](CC[C@@H]4[C@@]5(C)CC[C@H](OC(=O)CC[n+]6ccc(N(C)C)cc6)C(C)(C)[C@@H]5CC[C@]43C)[C@@H]12.[Cl-].[Cl-] , tested on Liver microsome, showed Activity of 25.7

====

This section presents molecules with their documented Ratio values.
- Tested on: Liver microsome
- procedure_summary: Induction of mitochondrial function disruption in Wistar Han rat liver mitochondria energized with succinate assessed as respiratory control ratio measured at 0.333 ug/mg of protein (reference value: 4.1 +/- 0.5 no_unit)
- Format: functional

Some molecules with known Ratio results, for comparison:
molecule: C=C(C)[C@@H]1CC[C@]2(COC(=O)CC[n+]3ccc(N(C)C)cc3)CC[C@]3(C)[C@H](CC[C@@H]4[C@@]5(C)CC[C@H](OC(=O)CC[n+]6ccc(N(C)C)cc6)C(C)(C)[C@@H]5CC[C@]43C)[C@@H]12.[Cl-].[Cl-]
readout_value: 4.1

molecule: C=C(C)[C@@H]1CC[C@]2(COC(=O)C[n+]3ccc(N(C)C)cc3)CC[C@]3(C)[C@H](CC[C@@H]4[C@@]5(C)CC[C@H](OC(=O)C[n+]6ccc(N(C)C)cc6)C(C)(C)[C@@H]5CC[C@]43C)[C@@H]12.[Cl-].[Cl-]
readout_value: 4.4

molecule: C=C(C)[C@@H]1CC[C@]2(COC(=O)C(CC)[n+]3ccc(N(C)C)cc3)CC[C@]3(C)[C@H](CC[C@@H]4[C@@]5(C)CC[C@H](OC(=O)C(CC)[n+]6ccc(N(C)C)cc6)C(C)(C)[C@@H]5CC[C@]43C)[C@@H]12 (some centres undefined)
readout_value: 3.2

Now for a further molecule.
Reported Ratio for C=C(C)[C@@H]1CC[C@]2(COC(=O)C[N+](C)(C)C(C)C)CC[C@]3(C)[C@H](CC[C@@H]4[C@@]5(C)CC[C@H](OC(=O)C[N+](C)(C)C(C)C)C(C)(C)[C@@H]5CC[C@]43C)[C@@H]12.[Cl-].[Cl-] was 4.2

====

This section presents compounds with their documented Activity values.
- Tested on: Liver microsome
- procedure_summary: Induction of mitochondrial function disruption in Wistar Han rat liver mitochondria energized with succinate assessed as State-4 level per mg of protein measured at 0.333 ug/mg of protein (reference value: 33.5 +/- 7.5 nmol/mg protein/min)
- Format: functional
Hi! Could you send only the number? It should be in nmol/min, unit omitted.

Some compounds with known Activity results, for comparison:
compound: C=C(C)[C@@H]1CC[C@]2(COC(=O)C[n+]3ccc(N(C)C)cc3)CC[C@]3(C)[C@H](CC[C@@H]4[C@@]5(C)CC[C@H](OC(=O)C[n+]6ccc(N(C)C)cc6)C(C)(C)[C@@H]5CC[C@]43C)[C@@H]12.[Cl-].[Cl-]
u: nmol/min
readout_value: 34.8
--
compound: C=C(C)[C@@H]1CC[C@]2(COC(=O)C(CC)[n+]3ccc(N(C)C)cc3)CC[C@]3(C)[C@H](CC[C@@H]4[C@@]5(C)CC[C@H](OC(=O)C(CC)[n+]6ccc(N(C)C)cc6)C(C)(C)[C@@H]5CC[C@]43C)[C@@H]12 (some centres undefined)
u: nmol/min
readout_value: 23.2
--
compound: C=C(C)[C@@H]1CC[C@]2(COC(=O)CC[n+]3ccc(N(C)C)cc3)CC[C@]3(C)[C@H](CC[C@@H]4[C@@]5(C)CC[C@H](OC(=O)CC[n+]6ccc(N(C)C)cc6)C(C)(C)[C@@H]5CC[C@]43C)[C@@H]12.[Cl-].[Cl-]
u: nmol/min
readout_value: 29.1

Now for a further compound.
Reported Activity for C=C(C)[C@@H]1CC[C@]2(COC(=O)C[N+](C)(C)C(C)C)CC[C@]3(C)[C@H](CC[C@@H]4[C@@]5(C)CC[C@H](OC(=O)C[N+](C)(C)C(C)C)C(C)(C)[C@@H]5CC[C@]43C)[C@@H]12.[Cl-].[Cl-] was 27.2
